- MEASUREMENT_PROTOCOL: MELAS cybrid and Rieske KO viability enhancers – cell-based, MELAS cybrids, Rieske KO mouse fibroblasts, CellTiter-Glo, primary screen (AID 1508586);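 note: z relative to plate mean and SD of compound and empty wells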
- CONDITION_DESCRIPTION: MELAS cybrid survival, low glucose, CellTiter-Glo 48 h; stronger effect = higher value
This listing pairs compounds with measured z-score.

COMPOUND | z-score
O=C(O)CNC(=O)Cc1c[nH]c2ccccc12 | -0.685
O=c1cc(-c2cccnc2)nc(-c2ccc(CN3CCCC(CO)C3)cc2)[nH]1 (stereo not given) | -0.0299
COc1ccc(-c2oc3c(CC=C(C)C)c(OC4OC(CO)C(O)C(O)C4O)cc(O)c3c(=O)c2OC2OC(C)C(O)C(O)C2O)cc1 (stereo not given) | -0.309
COc1cccc(-n2cc(-c3ccnc(NCCc4cnc[nH]4)n3)cn2)c1 | -0.718
O=C(NCc1cccc(O)c1)Nc1nc(-c2ccncc2)cs1 | 0.152
O=C(O)c1ccc(-c2ccc([N+](=O)[O-])cc2Cl)o1 | 0.0167
O=C(NCCO)c1cccc(-c2cc(Nc3ccc(OC(F)(F)F)cc3)ncn2)c1 | -0.469
CCc1nc(NC(=O)NCCc2nc(-c3ccc(C)cc3)no2)nn1C | 1.58
Cc1c(O)cccc1C(=O)NC(CSc1ccccc1)C(O)CN1C[C@H]2CCCC[C@H]2CC1C(=O)NC(C)(C)C (stereo not given in full) | -0.177
CNC1CCC(c2ccc(Cl)c(Cl)c2)c2ccccc21 (stereo not given) | -0.116

###

- MEASUREMENT_PROTOCOL: growth inhibition, single agent and combos, cell-based, chromothripsis tumors, cisplatin or BGB combos (AID 1671450);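 note: cells exposed to compound for four days; 0% = vehicle DMSO and 100% = cell killing by high DMSO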
- CONDITION_DESCRIPTION: HDN33 neuroblastoma cells, BGB combo, at 5 µM, stronger effect = higher value
This listing pairs compounds with measured inhibition.

COMPOUND | inhibition / %
COc1ccccc1S(=O)(=O)Nc1ccc2c(c1)CN(C)C(=O)N2 | 10.4
NC(=O)c1cccc2[nH]c(-c3ccc(C4CCCN4)cc3F)nc12 (stereo unspecified) | 54.3
C[C@@H]1O[C@@H](O[C@@H]2[C@@H](O)[C@H](OCCc3ccc(O)c(O)c3)O[C@H](CO)[C@H]2OC(=O)C=Cc2ccc(O)c(O)c2)[C@H](O)[C@H](O)[C@H]1O | -0.831
CC(C=CC(=O)NO)=CC(C)C(=O)c1ccc(N(C)C)cc1 (stereo unspecified) | 99.8
NC(=S)NN=Cc1ncccc1N | 85
Nc1ccccc1NC(=O)c1cnccn1 | -12.4
C=C1C(=O)O[C@@H]2C=C(C)CCC=C(C)CC[C@@H]12 | 5.76
Cc1cc(C)c(Nc2ccnc(Nc3ccc(C#N)cc3)n2)c(C)c1 | 15.1
O=c1ccn(C2CC(O)C(CO)O2)c(=O)[nH]1 (stereo unspecified) | -20.7
CC(C)c1ccc(-c2cc(=O)c3ccccc3o2)cc1 | 30.8
NC(=O)c1cccc2cn(-c3ccc(C4CCCNC4)cc3)nc12 (stereo unspecified) | -13.1

###

- MEASUREMENT_PROTOCOL: yeast 75Q aggregation reduction – 75Q-TubU reporter (AID 1593)
- CONDITION_DESCRIPTION: Yeast 75Q polyglutamine aggregation reporter
Entry flag: y if score reaches 0.9; n if it does not.

MOLECULE | ASSIGNED_CLASS
CC(=O)Oc1ccc2c(c1)CCC1C2CCC2(C)C(=O)CCC12 (stereo not given) | n
Nc1ncnc2c1ncn2C1OC(CO)[C@H](O)C1O (stereo not given in full) | y
OCCS | y
O=c1c(O)cc2c(O)oc3c(=O)c(O)cc4c3c2c1CC=4O | n
CC(Cc1ccc(O)c(O)c1)C(C)Cc1ccc(O)c(O)c1 (stereo not given) | n
C[C@]12CCC3c4ccc(OC(=O)CCC(=O)O)cc4CCC3C1CCC2=O (stereo not given in full) | y
CC(=O)OCC(=O)[C@@]12OC(C)(C)O[C@@H]1C[C@H]1C3C[C@H](F)C4=CC(=O)C=CC4(C)[C@@]3(F)[C@@H](O)C[C@@]12C (stereo not given in full) | y
NCC1OC(OC2C(N)CC(N)C(OC3OC(CO)C(O)C(N)C3O)C2O)C(N)C(O)C1O (stereo not given) | y
CC[C@]12CCCN3CCc4c(n(c5ccccc45)[C@](O)(C(=O)OC)C1)[C@@H]32 | y
CC1(C)S[C@@H]2[C@H](NC(=O)[C@@H](N)c3ccc(O)cc3)C(=O)N2[C@H]1C(=O)O | y

###

- MEASUREMENT_PROTOCOL: viability loss with induced miR-34 in A549 – imaging, A549 dox-inducible miR-34, nuclei and caspase counts, primary screen (AID 1347080)
- CONDITION_DESCRIPTION: A549 miR-34 inducible, Hoechst nuclei count, 48 h; measured here: relative caspase fold change +Dox/-Dox

COMPOUND | fold change
COc1ccc(CC(N)=O)cc1 | 0.564
CC(C)(C)NS(=O)(=O)c1cncc(-c2cc(F)c3nc(N)nn3c2)c1 | 1.55
Nc1ccc(CCNc2ncnc3c2ncn3C2OC(CO)C(O)C2O)cc1 (stereo unspecified) | 1.75
CC(=O)N[C@@H](CSC/C=C(\C)CCC=C(C)C)C(=O)O | 1.12
Nc1ncnc2c1ncn2C1CCCC1 | 2.13
CCn1cc(NC(=S)Nc2cc(Cl)ccc2OC)c(C(N)=O)n1 | 0.479
C#CCC(Cc1cnc2nc(N)nc(N)c2n1)c1ccc(C(=O)NC(CCC(=O)O)C(=O)O)cc1 (stereo unspecified) | 0.784
Cn1cc(C=CC(=O)c2cccc(F)c2)cc1C=CC(=O)NO | 1.19
O=c1cc(O)cc(/C=C/c2ccc(O)c(O)c2)o1 | 1.07
CCCCCCCCCCCCCCC[C@@H](O)[C@H](CO)NC(=O)CCCCCCC | 1.41
CCNC(=O)c1cccnc1N1CCN(c2ccc(Cl)cc2)CC1 | 0.821

###

- MEASUREMENT_PROTOCOL: liver-stage malaria parasite load reduction – cell-based, known kinase inhibitor set, luminescence, hepatoma host viability (AID 624392);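 note: infected cells incubated roughly two days before readout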
- CONDITION_DESCRIPTION: Plasmodium liver stage in hepatoma cells, luciferase luminescence, concentration not given here; stronger effect = lower value
This listing pairs compounds with measured parasite % of control.

COMPOUND | MEASURE_UNIT | parasite % of control
COc1cc(NC(=O)c2cc(C)on2)cc(C(=O)Nc2cccc(C(F)(F)F)c2)c1 | % | 66.6
NC(=O)Nc1sc(-c2ccccc2)cc1C(N)=O | % | 316
Cc1ccc(C(=O)Nc2cccc(C(F)(F)F)c2)cc1NC(=O)c1ccno1 | % | 87.9
Cc1ccc(C(=O)Nc2cccc(C(F)(F)F)c2)cc1Nc1ncnc2nc[nH]c12 | % | 64.6
O=C(Nc1ccc(-c2csc(Nc3cccc(C(F)(F)F)c3)n2)cc1)c1cccc(C(F)(F)F)c1 | % | 45.1
CCN1CCN(Cc2ccc(NC(=O)c3ccc(C)c(NC(=O)c4cc(-c5ccc(Br)cc5)n[nH]4)c3)cc2C(F)(F)F)CC1 | % | 208
C=CC(=O)Nc1cccc(N(C)c2ccnc(Nc3ccc(N4CCN(C)CC4)cc3)n2)c1 | % | 6.04
COc1cc(NC(=O)c2cnc(N)o2)cc(C(=O)Nc2cccc(C(F)(F)F)c2)c1 | % | 106
Cc1cn(-c2cc(C(=O)Nc3ccc(C)c(NC(=O)N4CCNC4=O)c3)cc(C(F)(F)F)c2)cn1 | % | 72.3
Cc1nc(Nc2cnc(C=Cc3cc(C(=O)Nc4cccc(C(F)(F)F)c4)ccc3C)cn2)cc(N2CCNCC2)n1 | % | 144
O=C(Nc1ccc(-c2csc(Nc3cccc(C(F)(F)F)c3)n2)cc1)c1ccccc1 | % | 69.1
C=CC(=O)Nc1cccc(CN2C(=O)N(c3cc(OC)cc(OC)c3)Cc3cnc(NCCCCN(CC)CC)nc32)c1 | % | 70.3
O=C(Nc1cccc(-c2csc(Nc3cccc(C(F)(F)F)c3)n2)c1)c1ccccc1 | % | 68.7
CCN1CCN(Cc2ccc(NC(=O)c3ccc(C)c(NC(=O)C4=NN(c5ccccc5)C(=O)C4)c3)cc2C(F)(F)F)CC1 | % | 72.3
CC(C)n1cnc2c(Nc3ccc(F)c(Cl)c3)nc(NCCO)nc21 | % | 107
CC(C)CC(CO)Nc1nc(N(C)c2cccc(Cl)c2)c2ncn(C(C)C)c2n1 (centres undefined) | % | 114
COc1ccc(CNc2nc(NCc3ccc(OC)cc3)c3[nH]cnc3n2)cc1 | % | 590
CS(=O)(=O)Nc1ccc(-c2cc(C=C3SC(N)=NC3=O)c[nH]c2=O)cc1 | % | 127
CCC(C)Oc1cc(-c2ccnc(Nc3cccc(Cl)c3)n2)ccn1 (centres undefined) | % | 150

###

- MEASUREMENT_PROTOCOL: viability loss with induced miR-34 in A549 – imaging, A549 dox-inducible miR-34, nuclei and caspase counts, primary screen (AID 1347080)
- CONDITION_DESCRIPTION: A549 miR-34 inducible, Hoechst nuclei count, 48 h; measured here: total cells without miR-34 induction
This listing pairs compounds with measured cell count.

COMPOUND | cell count
Cc1ccc(C(=O)N(CCCN)C(c2nc3cc(Cl)ccc3c(=O)n2Cc2ccccc2)C(C)C)cc1 (centres undefined) | 1350
COc1c2c(nc3ccccc13)OC(C(C)(O)CO)C2 (centres undefined) | 9080
CC(=O)O[C@]1(C(C)=O)CCC2C3C=C(C)C4=CC(=O)CC[C@]4(C)C3CC[C@@]21C (some centres undefined) | 7170
NCC1OC(OC2C(CO)OC(OC3C(O)C(N)CC(N)C3OC3OC(CO)C(O)C(O)C3N)C2O)C(N)C(O)C1O (centres undefined) | 10400
OCC(O)COc1ccc(Cl)cc1 (centres undefined) | 9820
CC(NC(=O)C(O)c1cc(F)cc(F)c1)C(=O)NC1C(=O)N(C)c2ccccc2-c2ccccc21 (centres undefined) | 8970
CC(NC(=O)CCc1nc2ccccc2c(=O)[nH]1)c1ccccc1 (centres undefined) | 9430
CN1CC[C@H](c2c(O)cc(O)c3c(=O)cc(-c4ccccc4Cl)oc23)C(O)C1 (some centres undefined) | 1700
O=C(O)/C(=C/c1c(C(=O)O)[nH]c2cc(Cl)cc(Cl)c12)c1ccccc1 | 9320
Nc1cc(F)ccc1NC(=O)C=Cc1cnn(CC=Cc2ccccc2)c1 | 7680
NC(Cc1cccc(-c2ccccc2CP(=O)(O)O)c1)C(=O)O (centres undefined) | 11000
COc1ccccc1-c1cnn(CC(=O)Nc2cc(C)nn2C)c1 | 9090
CN(C)CCOc1ccc(-c2nc(-c3ccc4c(c3)CCC4=NO)c(-c3ccncc3)[nH]2)cc1 | 7200
O=C1NC(C(=O)O)CS1 (centres undefined) | 10300
Cc1c(C(=O)Nc2ccc(N3CCC(N4CCOCC4)CC3)c(C#N)c2)cnn1-c1ccc(Cl)cc1 | 1910
COc1nc2ccccc2cc1-c1nnc2ccccn12 | 7610
Cc1cn(C2OC(CO)C(O)C2F)c(=O)[nH]c1=O (centres undefined) | 10500
O=C(Nc1n[nH]c(-c2ccccc2)n1)N1CCN(c2ccc(F)cc2)CC1 | 8190
O=C1NC(=O)C(=Cc2ccc3nccc(-c4ccncc4)c3c2)S1 | 1820
C=C(C)C1CC[C@]2(C(=O)O)CC[C@]3(C)[C@H](CC[C@@H]4[C@@]5(C)CCC(O)C(C)(C)[C@@H]5CC[C@]43C)[C@@H]12 (some centres undefined) | 7790
O=CC(O)C(O)C(O)CO (centres undefined) | 8650
N#Cc1c(Oc2ccc(F)c(NC(=O)Cc3cccc(C(F)(F)F)c3)c2)ccc2nc(NC(=O)C3CC3)sc12 | 1840
CON=C1C[C@]2(C[C@@H]3C[C@@H](C/C=C(\C)C[C@@H](C)/C=C/C=C4\CO[C@@H]5[C@H](O)C(C)=C[C@@H](C(=O)O3)[C@]45O)O2)O[C@H](/C(C)=C/C(C)C)[C@H]1C | 3250
O=C(O)CCc1c(C(=O)O)[nH]c2cc(Cl)cc(Cl)c12 | 9880
CC(C)OC(=O)CCCC=CCC1C(O)CC(O)C1CCC(O)CCc1ccccc1 (centres undefined) | 9620
N[C@H](C(=O)O)[C@H](Cc1ccccc1)C(=O)O | 10700
N[C@H](C(=O)O)[C@H]1C[C@@H]1C(=O)O | 10200
Cc1cc(Nc2nc(NC(C)c3ncc(F)cn3)ncc2Cl)n[nH]1 (centres undefined) | 1290
CCn1c2ccccc2c2cc(Nc3ccnc(NCCCN4CCOCC4)n3)ccc21 | 2280
Nc1nc(=S)c2ncn([C@@H]3O[C@H](CO)[C@@H](O)[C@H]3O)c2[nH]1 | 2870
O[C@@H]1[C@@H](O)C=C2CCN3Cc4cc5c(cc4[C@H]1C23)OCO5 (some centres undefined) | 2530
CN[C@@H]1C(O[C@H]2O[C@H](CO)[C@@H](N)[C@H](O)[C@H]2O)O[C@H]2C[C@@H](N)[C@@H](O[C@H]3[C@H](O)[C@@H](O)[C@H](N)C[C@@H]3N)OC2[C@@H]1O (some centres undefined) | 8920
CC1(C)O[C@@H]2C[C@H]3[C@@H]4C[C@@H](F)C5=CC(=O)C=C[C@]5(C)[C@]4(F)C(O)C[C@]3(C)[C@@]2(C(=O)CO)O1 (some centres undefined) | 6950
COCC(NC(=O)c1cnc(C)s1)C(=O)NC(COC)C(=O)NC(Cc1ccccc1)C(=O)C1(C)CO1 (centres undefined) | 796
NC(=S)NN=Cc1ncccc1N | 1600
CO[C@@]1(NC(=O)[C@H](C(=O)O)c2ccc(O)cc2)C(=O)N2C(C(=O)O)=C(CSc3nnnn3C)CO[C@@H]21 | 10400
Cc1nc(NC(=O)NCc2cccc(C(F)(F)F)c2)nn1C | 9880
O=C(NCCCc1ccccc1)NC1CCCCC1 | 9480
Cc1nnc(NC(=O)NCC(c2ccccc2)c2ccccc2)s1 | 9310
